Tested on: SNB-19 CNS
METHOD_NOTES: NCI tumour cell line growth inhibition, 48 h
Parameter TGI: see the listing below.

COMPOUND: COc1ccc(C2=[S+]C(c3ccccc3)(c3ccccc3)c3ccccc32)cc1
TARGET_ENTITY: SNB-19 CNS
TGI: > 100 µM

COMPOUND: O=c1nc2ccc([N+](=O)[O-])cc2[n+]([O-])[nH]1
TARGET_ENTITY: SNB-19 CNS
TGI: > 100 µM

COMPOUND: O=C(/C=C1\Sc2ccccc2N=C1CC(=O)c1ccccc1)c1ccccc1
TARGET_ENTITY: SNB-19 CNS
TGI: > 100 µM

COMPOUND: Cc1cc(NCc2cc(Nc3ccnc4cc(Cl)ccc34)ccc2F)nc(N2CCOCC2)n1
TARGET_ENTITY: SNB-19 CNS
TGI: 54.4 µM

COMPOUND: CN(C)C(=S)/N=c1\ssc(=S)n1C
TARGET_ENTITY: SNB-19 CNS
TGI: > 100 µM

COMPOUND: CCOC(=O)c1sc(-c2ccc(OS(=O)(=O)C[C@]34CCC(CC3=O)C4(C)C)c(C=O)c2)nc1C
TARGET_ENTITY: SNB-19 CNS
TGI: 2.15 µM

COMPOUND: CCOc1cc(/C=C/C(=O)C(C(=O)/C=C/c2ccc(OC(=O)CNc3nc4ccccc4[nH]3)c(OCC)c2)C(=O)CNc2nc3ccccc3[nH]2)ccc1OC(=O)CNc1nc2ccccc2[nH]1
TARGET_ENTITY: SNB-19 CNS
TGI: 11.7 µM

COMPOUND: COc1ccc(/C=C2/C(=O)N(C(=O)c3ccccc3O)N=C2C)cc1
TARGET_ENTITY: SNB-19 CNS
TGI: > 100 µM

COMPOUND: Cc1cn(-c2cccc(NC(=O)c3ccc(C)c(Nc4nccc(-c5cccnc5)n4)c3)c2)cn1
TARGET_ENTITY: SNB-19 CNS
TGI: > 100 µM

COMPOUND: C/C(=N\NC(=O)c1ccc(Cl)cc1)c1nc2ncccc2[nH]1
TARGET_ENTITY: SNB-19 CNS
TGI: > 100 µM

COMPOUND: N#CCCN(CCC#N)c1ccc(/C=C2\N=C(c3ccccc3)N(c3ccc(C(=O)O)cc3)C2=O)cc1
TARGET_ENTITY: SNB-19 CNS
TGI: > 100 µM

COMPOUND: CC1(C)OC(=S)N(c2ccccc2)C12C=Cc1cc3ccccc3nc1S2 (stereo unspecified)
TARGET_ENTITY: SNB-19 CNS
TGI: > 100 µM

COMPOUND: Clc1ccc(/C=C/c2ccc3ccccc3n2)cc1
TARGET_ENTITY: SNB-19 CNS
TGI: > 100 µM

COMPOUND: c1ccc(-c2nc3n(c2-c2ccc4c(c2)OCO4)CCC3)nc1
TARGET_ENTITY: SNB-19 CNS
TGI: > 25 µM

COMPOUND: O=c1[nH]nc(-c2ccccc2)n1/N=C/c1ccccc1O
TARGET_ENTITY: SNB-19 CNS
TGI: > 100 µM

COMPOUND: COc1ccc(/C=C(\NC(=O)c2ccccc2)c2nc3ccccc3[nH]2)cc1OC
TARGET_ENTITY: SNB-19 CNS
TGI: > 100 µM

COMPOUND: NC(=O)CSc1c2cc(O)ccc2nc2ccc(O)cc12
TARGET_ENTITY: SNB-19 CNS
TGI: > 10 µM

COMPOUND: c1ccc2cc3c(NC4=NCCO4)cccc3cc2c1
TARGET_ENTITY: SNB-19 CNS
TGI: > 100 µM

COMPOUND: CCOP(=O)(OCC)/C(C#N)=C/c1ccccn1
TARGET_ENTITY: SNB-19 CNS
TGI: > 100 µM

COMPOUND: C=C1C(=O)C23[C@H](O)C1CC[C@H]2[C@]12COC3(O)[C@@H](O)[C@@H]1C(C)(C)CC[C@@H]2O
TARGET_ENTITY: SNB-19 CNS
TGI: 32.7 µM

COMPOUND: Cc1ccc(S(=O)(=O)CNC(=O)C(O)(O)C(F)(F)F)cc1
TARGET_ENTITY: SNB-19 CNS
TGI: > 100 µM

COMPOUND: CCOC(=O)/C=C/c1c(C)[nH]c(=O)[nH]c1=O
TARGET_ENTITY: SNB-19 CNS
TGI: > 250 µM

COMPOUND: N#CC1=C(N)N(/N=C/c2ccccc2)C(c2ccccc2)C1(C#N)C#N (stereo unspecified)
TARGET_ENTITY: SNB-19 CNS
TGI: > 54.6 µM

COMPOUND: c1ccc2c(c1)c1ccccc1n2Cn1c2ccccc2c2ccccc21
TARGET_ENTITY: SNB-19 CNS
TGI: > 100 µM

COMPOUND: O=C1C[C@@]23CCC4(CC2CCC[C@H]3O1)OCCO4 (stereo partly specified)
TARGET_ENTITY: SNB-19 CNS
TGI: > 100 µM

COMPOUND: C=C1C(=O)O[C@H]2[C@H]1CC/C(COC(=O)NCc1ccc(Cn3c(=O)sn(CCCCC)c3=O)cc1)=C\CC[C@@]1(C)O[C@@H]21
TARGET_ENTITY: SNB-19 CNS
TGI: 17.5 µM

COMPOUND: O=C1CCC[C@H]2O[C@@H](COC(=O)c3ccccc3)C[C@H]2O1
TARGET_ENTITY: SNB-19 CNS
TGI: > 100 µM

COMPOUND: COc1ccc(C2=NC(=O)NC2c2ccc(OC)cc2)cc1 (stereo unspecified)
TARGET_ENTITY: SNB-19 CNS
TGI: > 100 µM

COMPOUND: CC(NC(=O)Cc1ccc(C(F)(F)P(=O)(OCc2ccc([N+](=O)[O-])o2)N(C)CCCCCl)cc1)c1ccc(OCC2CCCCC2)c(C(N)=O)c1 (stereo unspecified)
TARGET_ENTITY: SNB-19 CNS
TGI: 29.7 µM

COMPOUND: COc1cccc(-c2cc(=O)c3cc4c(cc3[nH]2)OCO4)c1
TARGET_ENTITY: SNB-19 CNS
TGI: > 45.1 µM

COMPOUND: COc1ccc(-c2oc3cc(OC)c(OC)c(O)c3c(=O)c2OC)cc1
TARGET_ENTITY: SNB-19 CNS
TGI: > 100 µM

COMPOUND: CCCCCCCCC/C=C1/CC(CO)(COC(=O)CC(C(C)C)C(C)C)OC1=O (stereo unspecified)
TARGET_ENTITY: SNB-19 CNS
TGI: 23.9 µM

COMPOUND: Cc1ccc(O)c(C2=CC3=NNC(=O)C3C(c3cccc(Cl)c3)C2)c1 (stereo unspecified)
TARGET_ENTITY: SNB-19 CNS
TGI: > 100 µM

COMPOUND: ClCc1cccc(Cn2cnc3c(Cl)nc(Cl)nc32)c1
TARGET_ENTITY: SNB-19 CNS
TGI: 4.17 µM

COMPOUND: C=C1C(=O)O[C@H]2[C@H]1CC/C(Cn1cc(-c3ccc(N)cc3)nn1)=C\CC[C@@]1(C)O[C@@H]21
TARGET_ENTITY: SNB-19 CNS
TGI: 41.1 µM

COMPOUND: CO/N=C\c1ccc2c(c1)Sc1ccccc1O2
TARGET_ENTITY: SNB-19 CNS
TGI: > 100 µM

COMPOUND: O=C(O)c1nc2ccc(C(F)(F)F)cc2nc1Nc1ccc(Cl)c(Cl)c1
TARGET_ENTITY: SNB-19 CNS
TGI: 10.9 µM

COMPOUND: CC[C@@H](CCCCC1CC[C@H]2CC(=O)C[C@@H]12)OC (stereo partly specified)
TARGET_ENTITY: SNB-19 CNS
TGI: > 100 µM

COMPOUND: CC(=O)/C=C/c1ccc(Nc2c3ccccc3nc3occ(Cl)c23)cc1
TARGET_ENTITY: SNB-19 CNS
TGI: 30.2 µM

COMPOUND: Cc1cccc2[nH]c3c(c(O)cc4[nH]c5cccc(C)c5c(=O)c43)c(=O)c12
TARGET_ENTITY: SNB-19 CNS
TGI: > 10 µM

COMPOUND: CN=C(Nc1ccc(OC)c2ccccc12)SC
TARGET_ENTITY: SNB-19 CNS
TGI: > 10 µM
